Protein target, amino acids: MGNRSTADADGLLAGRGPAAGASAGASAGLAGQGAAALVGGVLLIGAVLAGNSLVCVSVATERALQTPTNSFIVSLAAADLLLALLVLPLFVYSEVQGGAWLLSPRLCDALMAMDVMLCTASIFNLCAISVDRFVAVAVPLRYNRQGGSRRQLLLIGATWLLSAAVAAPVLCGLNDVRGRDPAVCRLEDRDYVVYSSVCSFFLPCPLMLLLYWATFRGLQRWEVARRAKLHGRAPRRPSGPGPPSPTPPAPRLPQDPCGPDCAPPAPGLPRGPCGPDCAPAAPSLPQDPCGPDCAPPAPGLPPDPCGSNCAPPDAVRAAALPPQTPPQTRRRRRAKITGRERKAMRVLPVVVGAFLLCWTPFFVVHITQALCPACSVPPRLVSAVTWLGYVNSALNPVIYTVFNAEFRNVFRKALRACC
the protein given by its sequence pKi, compiled from various sources.
Please express pKi as -log10 of the molar concentration.

# smiles.representation, assay.value
records = [
    ("Fc1ccc(N2CCN(Cc3cn4ccccc4n3)CC2)cc1", 7.36),
    ("COc1ccccc1N1CCN(CCCCc2cn(-c3ccccc3)nn2)CC1", 6.31),
    ("O=C(NC/C=C/CN1CCN(c2cccc(Cl)c2Cl)CC1)c1ccc2c(c1)Cc1ccccc1-2", 5.99),
]

Query: Given the compound COc1ccc(N(Cc2ccc(F)cc2)NC(=O)NCCCN2CCN(c3ccccc3OC)CC2)cc1 , what is its reported pKi?
Response: 8.54

Query: Given the compound Cc1nc(Cl)c(Sc2ccc(Cl)cc2)c(N2CCN(C)CC2)n1 , what is its reported pKi?
Response: 6.59

Query: Given the compound COc1ccccc1N1CCN(Cc2cn(-c3ccc(OCCCOCCF)cc3)nn2)CC1 , what is its reported pKi?
Response: 7.80

Query: Given the compound Cc1ccc(CNCC2(F)CCN(C(=O)c3cc(Br)cs3)CC2)nc1 , what is its reported pKi?
Response: 5.70

Query: Given the compound COC1(c2ccc(Cl)cc2)CCN(Cc2c[nH]c3ccccc23)CC1 , what is its reported pKi?
Response: 7.47

* * *

D(4) dopamine receptor (Homo sapiens) Ki, compiled from various sources.
With a cut-off of 5 nM, any Ki strictly below it is called 1; any Ki meeting it or above is called -1.

# smiles.representation, category.label
measured = [
    ("COc1ccccc1N1CCN(Cc2cc(CN3CCOCC3)c3cccccc2-3)CC1", 1),
    ("O=[N+]([O-])c1ccc(OCCNCCCOc2ccccc2)cc1", 1),
]

Query: For CCc1c(C2CCN(Cc3ccccc3)CC2)n[nH]c1-c1ccc(Cl)cc1 , is the recorded Ki below the cut-off of 5 nM?
Response: 1

Query: For Clc1ccc(N2CCN(Cc3cccn4nccc34)CC2)cc1 , is the recorded Ki below the cut-off of 5 nM?
Response: -1

Query: For COc1ccccc1N1CCN(CCCCn2cc(-c3ccc4ncccc4c3)nn2)CC1 , is the recorded Ki below the cut-off of 5 nM?
Response: -1

Query: For O=Cc1cccc2c(CN3CCN(c4ccc(Cl)cc4)CC3)cnn12 , is the recorded Ki below the cut-off of 5 nM?
Response: 1

* * *

D(4) dopamine receptor (Homo sapiens, UniProt P21917) pKi, compiled from various sources.
Please express pKi as -log10 of the molar concentration.

Here are 3 molecules together with their reported answers.
# smiles.representation, test.target, pKi
records = [
    ("COc1ccc(F)cc1[C@H]1C[C@@H]1CNCCCOc1ccc2ccc(=O)[nH]c2c1", "D(4) dopamine receptor (Homo sapiens, UniProt P21917)", 6.52),
    ("COc1ccccc1N1CCN(CCCCn2cc(-c3ccc4[nH]ccc4c3)nn2)CC1", "D(4) dopamine receptor (Homo sapiens, UniProt P21917)", 6.65),
    ("O=c1[nH]c2cc(Cl)cc(OCCNCc3ccccc3)c2[nH]1", "D(4) dopamine receptor (Homo sapiens, UniProt P21917)", 7.80),
]

Read the next record carefully.
Query: Given the molecule COc1ccccc1N1CCN(CCCNC(=O)NCc2ccccc2-c2ccc(-c3ccccc3)cc2)CC1 , what is its reported pKi?
Response: 7.82

* * *

D(4) dopamine receptor (Homo sapiens) log10 of Ki, compiled from various sources.
- test.target: D(4) dopamine receptor (Homo sapiens)
- Sequence (P21917 whole entry): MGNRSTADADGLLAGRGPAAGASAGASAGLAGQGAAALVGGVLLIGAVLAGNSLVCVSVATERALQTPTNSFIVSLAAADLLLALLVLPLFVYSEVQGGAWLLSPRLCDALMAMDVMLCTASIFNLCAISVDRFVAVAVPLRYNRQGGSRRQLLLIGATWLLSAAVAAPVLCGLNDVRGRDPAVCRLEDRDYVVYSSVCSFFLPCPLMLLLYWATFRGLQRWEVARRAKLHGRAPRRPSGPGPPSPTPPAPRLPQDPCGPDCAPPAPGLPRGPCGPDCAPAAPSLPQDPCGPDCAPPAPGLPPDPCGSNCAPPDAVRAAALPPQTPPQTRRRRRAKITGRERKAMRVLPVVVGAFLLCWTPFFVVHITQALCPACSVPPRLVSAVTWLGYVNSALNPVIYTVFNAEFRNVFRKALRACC
Units before log transform: nM; reported quantity: Ki; transform: log10.

Here are 3 molecules together with their reported answers.
# molecule, assay.value
rows = [
    ("Clc1ccc(-c2cc(C3CCCN(Cc4ccccc4)C3)[nH]n2)cc1 (stereo not given)", 2.61),
    ("Cc1cccc(CN2CCC(NC(=O)c3ccc4ccccc4c3)CC2)c1", 1.04),
    ("COc1cc2ccccc2cc1COCC1CCN(Cc2ccccc2)CC1", 1.50),
]

Query: Given the molecule Clc1ccc(OCCNCCCOc2ccc(Br)cc2)cc1 , what is its reported log10 of Ki?
Response: 1.58

Query: Given the molecule CC(C)(C)C(=O)NCCCCN1CCN(c2cccc(Cl)c2)CC1 , what is its reported log10 of Ki?
Response: 2.00

Query: Given the molecule O=c1ccc2ccc(OCCCCN3CCN(c4ccccc4OCCF)CC3)cc2[nH]1 , what is its reported log10 of Ki?
Response: 1.50

Query: Given the molecule Oc1ccc(C2(O)CCN(Cc3c[nH]c4ccccc34)CC2)cc1 , what is its reported log10 of Ki?
Response: 3.13

Query: Given the molecule CCCN(CCCCNC(=O)c1ccc(OCCCc2cn(CCCCCCCCn3cc(CCCOc4ccc(CN5CCN(c6ccccc6OC)CC5)cc4OC)nn3)nn2)c(OC)c1)C1Cc2ccccc2C1 , what is its reported log10 of Ki?
Response: 1.34

Query: Given the molecule COc1ccccc1N1CCN(Cc2cn3cc(C)cc(I)c3n2)CC1 , what is its reported log10 of Ki?
Response: -0.28

* * *

D(4) dopamine receptor (Homo sapiens) Ki, compiled from various sources.
Provide the reading as a plain figure in nM.

# compound, units.label, Ki
measured = [
    ("O=Cc1cnn2cc(OCCCCN3CCN(c4cccc(Cl)c4Cl)CC3)ccc12", "nM", 18),
    ("CNc1cc(OC)c(C(=O)NC[C@@H]2CCN(Cc3ccccc3)C2)cc1Cl", "nM", 19),
    ("Oc1ccc(N2CCN(CCCCOc3ccn4nccc4c3)CC2)c2c1OCCO2", "nM", 160),
    ("COc1ccccc1N1CCN(CCCNC(=O)NN(Cc2ccc(C#N)cc2)c2ccc(Cl)cc2Cl)CC1", "nM", 12),
    ("O=C(NC1CCN(Cc2ccc(Br)cc2)CC1)c1ccc2ccccc2c1", "nM", 34),
    ("c1ccc(N2CCN(Cc3cn(-c4ccccc4)nn3)CC2)cc1", "nM", 9.9),
]

Query: Look up Ki with D(4) dopamine receptor (Homo sapiens) for this compound: COc1cc(CCNCCc2ccc(O)c3[nH]c(=O)ccc23)ccc1OCCCc1ccccc1
Response: 900

Query: Look up Ki with D(4) dopamine receptor (Homo sapiens) for this compound: Nc1nc(-c2ccc(Cl)cc2)cc(C2CCN(Cc3ccccc3)CC2)n1
Response: 1

Query: Look up Ki with D(4) dopamine receptor (Homo sapiens) for this compound: COc1ccccc1N1CCN(Cc2cn3cc(Br)ccc3n2)CC1
Response: 0.25

* * *

the protein given by its sequence pKi, compiled from various sources.
Target protein (sequence): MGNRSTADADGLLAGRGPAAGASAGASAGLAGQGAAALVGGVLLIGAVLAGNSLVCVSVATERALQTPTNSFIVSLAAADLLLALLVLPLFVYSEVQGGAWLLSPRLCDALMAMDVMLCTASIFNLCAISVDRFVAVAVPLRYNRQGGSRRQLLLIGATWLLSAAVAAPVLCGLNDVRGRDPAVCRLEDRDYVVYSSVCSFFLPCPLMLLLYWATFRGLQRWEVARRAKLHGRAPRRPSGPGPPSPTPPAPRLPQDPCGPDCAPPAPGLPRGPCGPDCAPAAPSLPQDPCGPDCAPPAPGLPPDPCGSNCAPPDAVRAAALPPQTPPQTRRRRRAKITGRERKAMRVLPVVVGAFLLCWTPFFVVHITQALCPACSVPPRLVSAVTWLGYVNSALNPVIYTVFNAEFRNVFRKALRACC
pKi: −log10 of the molar value.
// thresholds for pKi classes: band A = under 6, band B = from 6 up to 8, band C = 8 and over

# compound, category.label
measured = [
    ("CC(=O)Nc1ccc(-c2cc(-c3ccccc3)nc3cc(C(=O)NCCCn4ccnc4)nn23)cc1", "band A"),
]

Query: Please let me know in which category the item CCCN(CCNC(=O)/N=N/c1ccc(F)c(F)c1)C1Cc2ccccc2C1 belongs.
Response: band C

Query: Please let me know in which category the item Fc1ccc(COC2CCN(Cc3ccc4[nH]cnc4c3)CC2)cc1F belongs.
Response: band A

Query: Please let me know in which category the item COc1cc2c(cc1OC)CN(CCNC(=O)c1cc(Br)cc(OC)c1OC)CC2 belongs.
Response: band B

Query: Please let me know in which category the item O=C(NC1CCN(Cc2cccc(Cl)c2)CC1)c1cccc2ccccc12 belongs.
Response: band B

Query: Please let me know in which category the item c1ccc(-c2ncc(CN3CCN(c4ccncc4)CC3)[nH]2)cc1 belongs.
Response: band A

Query: Please let me know in which category the item CN(C)C(=O)C(CCNCCC(O)CN1CCN(c2cccc(Cl)c2Cl)CC1)(c1ccccc1)c1ccccc1 (stereo not given) belongs.
Response: band A

Query: Please let me know in which category the item Ic1ccc(N2CCN(Cc3c[nH]c4ncccc34)CC2)cc1 belongs.
Response: band C
